- Test system: DNA
- assay-procedure: Thermal denaturation of DNA (ΔTm), stabilization of DNA helical structure on drug binding
- Parameters: species or system calf thymus
- cond: drug 1.4 × 10^-4 M; DNA (P) 1.4 × 10^-3 M; 0.01 M phosphate buffer pH 7.0, EDTA, 5% dimethyl sulfoxide
measurement-label: Tm (ΔTm = Tm of DNA-drug complex minus Tm of DNA)

molecule: Cc1c2oc3c(C)c(O)cc(C(=O)N[C@@H]4C(=O)N[C@H](C(C)C)C(=O)N5CCC[C@H]5C(=O)N(C)CC(=O)N(C)[C@@H](C(C)C)C(=O)O[C@@H]4C)c3nc-2c(C(=O)N[C@@H]2C(=O)N[C@H](C(C)C)C(=O)N3CCC[C@H]3C(=O)N(C)CC(=O)N(C)[C@@H](C(C)C)C(=O)O[C@@H]2C)c(N)c1=O [Compound 2b, 7-hydroxyactinomycin D, reference compound]
result-value: 6.7 ± 0.15 °C

---

- Tested on: DNA
- assay-procedure: Thermal denaturation of DNA (ΔTm), stabilization of DNA helical structure on drug binding
- Parameters: species or system calf thymus
- cond: drug 1.4 × 10^-4 M; DNA (P) 1.4 × 10^-3 M; 0.01 M phosphate buffer pH 7.0, EDTA, 5% dimethyl sulfoxide
Starred links: 1 amine or outer side, 2 acyl side, 3 side chain; linkers in the order of their positions; H or OH if unused. Positions of bridges follow the written chain, without caps; N, C: chain ends. Non-standard residues stand in square brackets, D forms with d. Residues, ends and D or L forms follow the SMILES beside them. Chains are numbered I, II in the order given. Actinocin(9to1) = Cc1c2oc3c(C)ccc(C(=O)[*:1])c3nc-2c(C(=O)[*:2])c(N)c1=O; NMeV = CN[C@H](C(=O)O)C(C)C; Sar = CNCC(=O)O
measurement-label: Tm (ΔTm = Tm of DNA-drug complex minus Tm of DNA) (°C)

molecule: CCN(CC)C(=O)c1c2nc3c(C(=O)N(CC)CC)cc(OCC(O)CO)c(C)c3oc-2c(C)c(=O)c1N (stereo not drawn)
assayed-target: DNA
result-value: 0

molecule: Cc1c2oc3c(C)c(OCC(O)CO)cc(C(=O)N[C@@H]4C(=O)N[C@H](C(C)C)C(=O)N5CCC[C@H]5C(=O)N(C)CC(=O)N(C)[C@@H](C(C)C)C(=O)O[C@@H]4C)c3nc-2c(C(=O)N[C@@H]2C(=O)N[C@H](C(C)C)C(=O)N3CCC[C@H]3C(=O)N(C)CC(=O)N(C)[C@@H](C(C)C)C(=O)O[C@@H]2C)c(N)c1=O (stereo partly drawn) [Compound 4b, 7-(2,3-Dihydroxypropoxy) actinomycin D]
assayed-target: DNA
result-value: 5.1

molecule: CCN(CC)C(=O)c1c2nc3c(C(=O)N(CC)CC)cc(O)c(C)c3oc-2c(C)c(=O)c1N
assayed-target: DNA
result-value: 0

molecule: CCN(CC)C(=O)c1c2nc3c(C(=O)N(CC)CC)cc(OCC4CO4)c(C)c3oc-2c(C)c(=O)c1N (stereo not drawn)
assayed-target: DNA
result-value: 0

molecule: Cc1c2oc3c(C)ccc(C(=O)N[C@@H]4C(=O)N[C@H](C(C)C)C(=O)N5CCC[C@H]5C(=O)N(C)CC(=O)N(C)[C@@H](C(C)C)C(=O)O[C@@H]4C)c3nc-2c(C(=O)N[C@@H]2C(=O)N[C@H](C(C)C)C(=O)N3CCC[C@H]3C(=O)N(C)CC(=O)N(C)[C@@H](C(C)C)C(=O)O[C@@H]2C)c(N)c1=O [Compound 1b, Actinomycin D, reference compound] (I: T[dV]P[Sar][NMeV] / II: T[dV]P[Sar][NMeV]; ester I:1-I:C, II:1-II:C; linker I:N-II:N via Actinocin(9to1))
assayed-target: DNA
result-value: 7.1

molecule: CCN(CC)C(=O)c1c2nc3c(C(=O)N(CC)CC)ccc(C)c3oc-2c(C)c(=O)c1N [Compound 1a, reference compound]
assayed-target: DNA
result-value: 0

These data points were gathered from patent US4514330A.
